- EXPERIMENT_DESCRIPTION: soluble fraction after stress (log2 fold change); higher = more stays soluble; pooled small domains, quantitative proteomics;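 also: 20 min heating vs room temperature control held 20 min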
- APPLIED_CONDITIONS: stress: 75 degC
REPORTED_ENDPOINT: soluble fraction (log2)
Answer with a number only.

Worked set:
- SEQUENCE_RECORD: "HMDPTEPLFVGVVTAEPYLNIREYPTTQSKDLGDLFPGMHVNVYEIVPNWYRIDDGWVASAWVKRDWGGG"
  soluble fraction (log2): -0.478
- SEQUENCE_RECORD: "HMERAFRILELFDLKQDELPITEIAERTGLPISTAHRLLSTLETLGYIAQNPDNGRYRLGLQTFVLGSR"
  soluble fraction (log2): -1.86
- SEQUENCE_RECORD: "HMEALPSNLRRLRLEAQLTLDRLGALSGVSRAMISKIERGASVPTATMLGKLAAALQVSLSQLL"
  soluble fraction (log2): -1.18

Quick one: soluble fraction (log2) of HMLDQGTQSRYQIMDGVRALITGDWSSHGAGLVRELSQEVARTSGLTATSERTFFVPFSALS ?
0.00593

###

- EXPERIMENT_DESCRIPTION: soluble fraction after stress (log2 fold change); higher = more stays soluble; pooled small domains, quantitative proteomics
- APPLIED_CONDITIONS: stress: 75 degC
Catalogue of soluble fraction (log2) readings, one per entry.
Answer with a number only.

Worked set:
- SEQUENCE_RECORD: "HMTLDSLEKLSVNDLEKMLVNMPVGYKTIFLLSVIDEYSHKEIGELLGITPETSRSQLFRAIKWIKTNIF"
  soluble fraction (log2): -0.631
- SEQUENCE_RECORD: "HMDKQEKIHKKKIIILEALKRLLQNDVYSRITVQAVADEAGFSKGGLLHYFPTKEEMYIEFMEY"
  soluble fraction (log2): -0.103
- SEQUENCE_RECORD: "HMRVQELARDLGVEADTLIALLRQMGIPVTGARSAINDAQQAKVLAKIERERRAGHSDPAKAIQAVLEEAS"
  soluble fraction (log2): 0.00503
- SEQUENCE_RECORD: "HMNARSTSYSDFIARVDKDEVASVRLDGETVTYQAADGTTYTTVKPESDPIAERLIAKGIEVNVVRQ"
  soluble fraction (log2): -0.348
- SEQUENCE_RECORD: "HMLDTELEANLRSQRDQKLVEELDPIVTNPLRWAELTSDKQTEWTQYRTDLLNVPQQSGFPTNVTWPEKP"
  soluble fraction (log2): 0.216

Quick one: soluble fraction (log2) of HMENEIPVPELVGMSEADAAAKLASLGLERDTQREATADEESVGKVLRQEPTPGEYVDEGHKVTIWVGE ?
0.184

For HMAAINTYQVRKIYAIAGALGMKSRDGDDALHDLVFGMTGKQHISGLTSAEAYDVIAELEKKQ then?
-1.6

For HMNGSVLVTGGSVWIRAGASKETDGLGIVHKGDVLKRSGSDASGWRGVVYEGQNAFISAKYSSI then?
-0.89

###

- EXPERIMENT_DESCRIPTION: soluble fraction after stress (log2 fold change); higher = more stays soluble; pooled small domains, quantitative proteomics
- APPLIED_CONDITIONS: stress: 75 degC
Label scheme for soluble fraction (log2): lower than -0.3 is label 0, -0.3 and above is label 1.

Reference set, count: 3
- SEQUENCE_RECORD: "HMGVREIIVQFLEQFDKPKSVQEIVEYVLRYRNTTENSIRSTMYSGSQFRQFDNGYFGLSDKSYPNEYIYA"
  CLASS_LABEL: "label 0"
- SEQUENCE_RECORD: "HMEKEYMKNVVGMEYRQARVLLGDMGLELAFQPVYETSDKYPTDVVVSTEPAADQPLTKGQTVILHIST"
  CLASS_LABEL: "label 0"
- SEQUENCE_RECORD: "HMENLIEELTAKNKEYIHSVTKQLILVGKSDEEVKEILNDILPQIIEGQKSGIIARKLLGAPTEFVSQYQP"
  CLASS_LABEL: "label 1"

Please tell me: is the sequence HMGTISKRINPSGTTVYRAVIRIRKNGYPNFTESRTFSKKSMAAEWVKRREAEIELNPDILFG at or over -0.3 in terms of soluble fraction (log2)?
label 0

For HMSFMPDPSIHDAITYTVRSGDYLGKISTTFGVKVSDLQKWNSIKSNIIYPGQKLTVWVSSNKRESLQ then?
label 0

For HMGQGSAFVYYEVLPKQTEYSLTRKLGLGYADLLSLNPQLARGLQAGMVLKIPRDKAGNLEVKNDLILE then?
label 0

For HMEFDIDAAIHAALEPQAVMRAWFGHEGREYPEDFGVVFFRGWESFTHQEKVEAVRDAKKVLDRAVR then?
label 0

For HMQLEPLVTSVIPVNFAKASDISGTIKGKEVGLLSERGNITAENRTNVLIVKDIRKSVDEINAMVKRLD then?
label 1

For HMSNLTDLVSAKEAEVYLHFLESGSTAGMTEAELRAVRKIEELIQSNKIDYNGILRIRNETVK then?
label 1

For HMNQEIELLLREPDFTSAARLAMAINERFTNSARAIDPTSVKVRMPEGLDQASVDFVARLEDIEMSPDT then?
label 1

For HMYYHQIIGLDVVDENGNTLGKIKEILSPGANDVWVVKRKQKNDLLLPVIDDVIKDVDLAAGKVHVELLEG then?
label 1

For HMTAQASDIEKVLQVIETLGFRGHTLPGENRTAIGVTGNRGSIDPAHFENLPGVADAIRVTKPY then?
label 1

For HMDAQLRVPDLTPYNYSELKENTSLYEGFTIEVVEERSTGDYAAGTVLDQDPKADTLIQDGDSTVIKLVIA then?
label 1

For HMLPITPGQKYKFVVKSAEEAAAIIRDKLGEMAQVISVRQVEGEGLARFLKSPKLEIIAQVPVA then?
label 0

For HMSVLQGLIESFKAGDRNLYEVAERLNVTEPFLAEALKDYRARFPKGVQVDNFWISFRPYLTIAEV then?
label 0

For HMNTKLSYSDLIEKIEAGQVEKVELDAGGSSAIVKLKNDNIEKRVNVPSIDNLMENLQDNMKTGNISVTE then?
label 1

For HMAVNVNGIHLSSQQHEALVSIWRTGRMPEPHAGQKPWLWIQALRRRGLVSGNALRLTDKGRHIVQLLQ then?
label 1
